System: Escherichia coli
Experimental protocol: Compound was tested in vitro for antibacterial activity against the microbial strain Escherichia coli NIHJ JC-2.
Assay type: functional
Response field label: string, one of rule met (MIC strictly below 0.2 µg/mL) or rule not met.

- Compound: "CCn1cc(C(=O)O)c(=O)c2ccc(N3CCNCC3)nc21"
  Target under test: "Escherichia coli"
  Class assignment: "rule not met"
- Compound: "C=Cn1cc(C(=O)O)c(=O)c2cc(F)c(N3CCNCC3)nc21"
  Target under test: "Escherichia coli"
  Class assignment: "rule met"

(Q) A record lists `C=Cn1cc(C(=O)O)c(=O)c2cc(F)c(-c3ccncc3)nc21` . Is its MIC below 0.2 µg/mL?
(A) rule not met

(Q) A record lists `CCn1cc(C(=O)O)c(=O)c2ccc(-c3ccncc3)nc21` . Is its MIC below 0.2 µg/mL?
(A) rule not met

(Q) A record lists `O=C(O)c1cn(C2CC2)c2nc(-c3ccncc3)c(F)cc2c1=O` . Is its MIC below 0.2 µg/mL?
(A) rule met

(Q) A record lists `O=C(O)c1cn(CCO)c2nc(-c3ccncc3)c(F)cc2c1=O` . Is its MIC below 0.2 µg/mL?
(A) rule not met

(Q) A record lists CCn1cc(C(=O)O)c(=O)c2ccc(-c3ccncc3)cc21 [ROSOXACIN] . Is its MIC below 0.2 µg/mL?
(A) rule not met

---

Test system: Mus musculus
Experimental protocol: Antibacterial activity against Escherichia coli P-5101 microbial strains in mice was determined expressed as ED50 (mg/kg)
Type: functional
Assignment: determine reported ED50 for the given molecules.
Answers are plain numbers, in mg/kg.

Take a look at these entries with their results.
- Record smiles: "CCn1cc(C(=O)O)c(=O)c2ccc(-c3ccncc3)cc21"
  ED50 (mg/kg): 7.3
- Record smiles: "CCn1cc(C(=O)O)c(=O)c2cc(F)c(N3CCNCC3)nc21"
  ED50 (mg/kg): 1.9
- Record smiles: "O=C(O)c1cn(C2CC2)c2nc(-c3ccncc3)c(F)cc2c1=O"
  ED50 (mg/kg): 4.48

# ---- query molecule ----
The reported ED50 of the molecule `O=C(O)c1cn(CCF)c2nc(-c3ccncc3)c(F)cc2c1=O` was 4.91

---

System: Escherichia coli
Experimental protocol: Compound was tested in vitro for antibacterial activity against the microbial strain Escherichia coli NIHJ JC-2.
Format: functional
Assignment: determine reported MIC for the given compounds.
Numbers only, in µg/mL.

Take a look at these entries with their results.
- Record smiles: "O=C(O)c1cn(CCF)c2nc(N3CCNCC3)c(F)cc2c1=O"
  MIC, µg/mL: 0.2
- Record smiles: "O=C(O)c1cn(CCF)c2nc(-c3ccncc3)c(F)cc2c1=O"
  MIC, µg/mL: 0.2
- Record smiles: "CCn1cc(C(=O)O)c(=O)c2cc(F)c(-c3ccncc3)nc21"
  MIC, µg/mL: 0.2

# ---- query compound ----
Reported Escherichia coli MIC for item `CCn1cc(C(=O)O)c(=O)c2cc(F)c(N3CCNCC3)nc21` was 0.2
